molecular target: GABARAP, O95166; test: median log2 fold change of GCK-ALFA target abundance (FLAG IP / Myc IP barcode read proportion) (log2 ratio); each designed protein is fused to an ALFA-tag nanobody in HEK293 cells to bring the named protein to FLAG-tagged glucokinase (GCK); Myc marks an untargeted standard; higher = target protein stabilised (more abundant); conditions: target protein: 3xFLAG-MCP-GCK-ALFA reporter; HEK293 landing pad (RPLP)
Sequence (O95166 whole entry, the tested form may be a part): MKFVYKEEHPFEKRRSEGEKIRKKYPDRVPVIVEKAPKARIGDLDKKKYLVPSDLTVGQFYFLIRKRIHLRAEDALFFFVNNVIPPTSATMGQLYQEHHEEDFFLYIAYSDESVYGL
Over roughly 4,500 sequences, “median log2 fold change of GCK-ALFA target abundance (FLAG IP / Myc IP barcode read proportion)” has its median near 0.078; the lowest 2% begin near -0.6. The full list was thinned out, with the lowest values kept by preference.

[
  {
    "binder": "GBRAP_39_5719 (protein) EEEEEAENIFSYYEAVGAKKMYERGISLDELFAELYARARELAADDPELAAALDELRALAEAAGDEAKLAAAGLMSRLVEGEPREEILADAEKLIAYLKS",
    "median log2 fold change": 0.194
  },
  {
    "binder": "GBRAP_52_6331 (protein) SHEEVEKMAEELYKAIVAGKEEEAKKLAEEMVETLSSEEILEAARIVAERVAKEGDEVKVRAAEVFEYLAELVEEKRGDERTAAEILGIYATTLYAAEQA",
    "median log2 fold change": 0.372
  },
  {
    "binder": "GBRAP_11_2721 (protein) KAEKLKALAEKAEALAEKVEKLIKEGPKKEEIKKLAEEVEKLREEAKKIGASEDVLKTLDIAAENLKKAIEDPSNVEEHLKNAAAALRVAAGQLLLEAEE",
    "median log2 fold change": 0.0939
  }
]
